What activity at 400 ppm was measured for each of the following?
System: Panonychus ulmi (OP- and carb.- resistant)
Experiment: Activity against Panonychus ulmi (OP- and carb.- resistant)
Format: in vivo
Conditions: 336 h, 400 ppm spray on apple seedlings, evaluated after 14 days, read-out: percentage reduction in population (% activity)
Experimental: Apple seedlings are populated with adult females of Panonychus ulmi. After seven days, the infested plants are sprayed to drip point with an aqueous emulsion comprising 400 ppm of the test compound and grown in the greenhouse. The test is evaluated after 14 days. The percentage reduction in population (% activity) is determined by comparing the number of dead spider mites on the treated plants with those on the untreated plants. […]

Data request: Lab note: need activity at 400 ppm with Panonychus ulmi (OP- and carb.- resistant) for entry O=C(CC=C(F)F)OCCOc1ccc(Oc2ccccc2)cc1 [Compound 1.01] , please look it up.
Data returned: > 80%

Data request: Param readout= activity at 400 ppm; system= Panonychus ulmi (OP- and carb.- resistant); entry= O=C(CCCC=C(F)F)OCCOc1ccc(OC(=O)Oc2ccccc2)cc1 [Compound 2.23] ; returns value.
Data returned: > 80%

Data request: Hi! What's the reported activity at 400 ppm for O=C(CCCCCCCC=C(F)F)OCCOc1ccc(Sc2ccccc2)cc1 [Compound 4.02] on Panonychus ulmi (OP- and carb.- resistant)?
Data returned: > 80%

Data request: Could you share what activity at 400 ppm was measured for O=C(CCCC=C(F)F)OCCOc1ccc(OCc2ccc(Cl)cc2)cc1 [Compound 2.08] , tested on Panonychus ulmi (OP- and carb.- resistant)?
Data returned: > 80%

Data request: Write down the reported activity at 400 ppm of N#Cc1ccc(COc2ccc(OCCOC(=O)CCCCCCCCCC=C(F)F)cc2)cc1 [Compound 5.10] , test system: Panonychus ulmi (OP- and carb.- resistant).
Data returned: > 80%

----------
tested on: Nephotettix cincticeps; assay: Activity against Nephotettix cincticeps (spray on rice plants); assay type: in vivo; conditions: 504 h, 400 ppm spray on rice plants, larvae in stages 2 and 3, evaluated 21 days later, read-out: percentage reduction in population (% activity)
Assignment: determine reported activity at 400 ppm for the given compounds.

Data request: What measured activity at 400 ppm is associated with O=C(CCCCCCCCCC=C(F)F)OCCOc1ccc(OCc2cccc(Cl)c2)cc1 on Nephotettix cincticeps?
Data returned: > 80%

Data request: What value of activity at 400 ppm on Nephotettix cincticeps does O=C(CCCCCCCCCC=C(F)F)OCCOc1ccc(OCc2cccc([N+](=O)[O-])c2)cc1 have?
Data returned: > 80%

Data request: So what activity at 400 ppm did CC(C)(C)c1ccc(COc2ccc(OCCOC(=O)CCCC=C(F)F)cc2)cc1 get with Nephotettix cincticeps?
Data returned: > 80%

Data request: // fetch Nephotettix cincticeps activity at 400 ppm for O=C(CCCCCCCC=C(F)F)OCCOc1ccc(OCc2ccccc2)cc1
Data returned: > 80%

Data request: State its activity at 400 ppm on Nephotettix cincticeps: O=C(CCCC=C(F)F)OCCOc1ccc(Oc2ccccc2)cc1
Data returned: > 80%

Data request: Hello, I am looking for reported activity at 400 ppm with Nephotettix cincticeps for O=C(CCCCCCCC=C(F)F)OCCOc1ccc(Sc2ccccc2)cc1 . Could you help?
Data returned: > 80%

Data request: Write down the reported activity at 400 ppm of O=C(CCCCCCCCCC=C(F)F)OCCOc1ccc(OCc2cccc(F)c2)cc1 , test system: Nephotettix cincticeps.
Data returned: > 80%
